ASSAYED_SYSTEM: Pdr3 (UniProt P33200)
Sequence: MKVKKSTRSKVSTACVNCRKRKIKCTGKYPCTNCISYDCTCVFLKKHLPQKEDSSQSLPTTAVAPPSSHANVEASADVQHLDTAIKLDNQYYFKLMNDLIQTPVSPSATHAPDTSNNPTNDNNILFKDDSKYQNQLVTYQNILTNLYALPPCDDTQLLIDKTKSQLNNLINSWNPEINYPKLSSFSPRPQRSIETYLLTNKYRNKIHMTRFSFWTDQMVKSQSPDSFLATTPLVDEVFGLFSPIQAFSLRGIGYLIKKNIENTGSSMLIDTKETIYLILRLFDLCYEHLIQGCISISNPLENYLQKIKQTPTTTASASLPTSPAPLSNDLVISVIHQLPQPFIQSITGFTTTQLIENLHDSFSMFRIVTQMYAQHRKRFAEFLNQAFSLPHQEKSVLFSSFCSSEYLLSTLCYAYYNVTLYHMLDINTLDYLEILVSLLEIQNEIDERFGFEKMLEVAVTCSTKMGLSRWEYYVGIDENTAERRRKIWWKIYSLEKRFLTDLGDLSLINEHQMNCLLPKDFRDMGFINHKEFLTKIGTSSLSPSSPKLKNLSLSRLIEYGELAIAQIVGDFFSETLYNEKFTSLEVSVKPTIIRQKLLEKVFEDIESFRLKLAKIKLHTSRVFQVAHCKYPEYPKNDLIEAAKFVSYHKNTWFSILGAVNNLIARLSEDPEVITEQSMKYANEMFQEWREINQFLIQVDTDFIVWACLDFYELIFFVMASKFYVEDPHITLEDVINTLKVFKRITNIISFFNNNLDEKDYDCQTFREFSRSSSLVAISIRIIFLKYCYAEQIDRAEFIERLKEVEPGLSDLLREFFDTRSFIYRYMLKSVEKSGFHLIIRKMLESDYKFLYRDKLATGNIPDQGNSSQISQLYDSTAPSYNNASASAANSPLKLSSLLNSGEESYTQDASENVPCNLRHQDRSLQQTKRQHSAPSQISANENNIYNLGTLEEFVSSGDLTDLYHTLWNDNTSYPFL
MEASUREMENT_DESCRIPTION: PBM E-score (8-mer binding enrichment) (E-score (-0.5 to 0.5)); higher = stronger / more preferred TF binding
TEST_CONTEXT: protein concentration: 200 nM; construct: GST-full length
The full ranking holds about 33,000 sequences; the median of “E-score (-0.5 to 0.5)” is about -0.035, and the highest 2% start at about 0.35. This excerpt belongs to a sample that is enriched for the highest values.
ENDPOINT_NAME: PBM E-score
Give bare numbers.

May I ask what PBM E-score has been recorded for `GCACCGTA` ?
0.067

For `CATGTGCG` then?
0.0377

Batch: PBM E-score for all items listed.
1. AGATCCCG
2. AGGAAACA
3. CGCAGAAG
4. CGGAAACG

0.4
-0.0166
-0.09
0.396

* * *

ASSAYED_SYSTEM: Pdr3 (UniProt P33200)
Sequence: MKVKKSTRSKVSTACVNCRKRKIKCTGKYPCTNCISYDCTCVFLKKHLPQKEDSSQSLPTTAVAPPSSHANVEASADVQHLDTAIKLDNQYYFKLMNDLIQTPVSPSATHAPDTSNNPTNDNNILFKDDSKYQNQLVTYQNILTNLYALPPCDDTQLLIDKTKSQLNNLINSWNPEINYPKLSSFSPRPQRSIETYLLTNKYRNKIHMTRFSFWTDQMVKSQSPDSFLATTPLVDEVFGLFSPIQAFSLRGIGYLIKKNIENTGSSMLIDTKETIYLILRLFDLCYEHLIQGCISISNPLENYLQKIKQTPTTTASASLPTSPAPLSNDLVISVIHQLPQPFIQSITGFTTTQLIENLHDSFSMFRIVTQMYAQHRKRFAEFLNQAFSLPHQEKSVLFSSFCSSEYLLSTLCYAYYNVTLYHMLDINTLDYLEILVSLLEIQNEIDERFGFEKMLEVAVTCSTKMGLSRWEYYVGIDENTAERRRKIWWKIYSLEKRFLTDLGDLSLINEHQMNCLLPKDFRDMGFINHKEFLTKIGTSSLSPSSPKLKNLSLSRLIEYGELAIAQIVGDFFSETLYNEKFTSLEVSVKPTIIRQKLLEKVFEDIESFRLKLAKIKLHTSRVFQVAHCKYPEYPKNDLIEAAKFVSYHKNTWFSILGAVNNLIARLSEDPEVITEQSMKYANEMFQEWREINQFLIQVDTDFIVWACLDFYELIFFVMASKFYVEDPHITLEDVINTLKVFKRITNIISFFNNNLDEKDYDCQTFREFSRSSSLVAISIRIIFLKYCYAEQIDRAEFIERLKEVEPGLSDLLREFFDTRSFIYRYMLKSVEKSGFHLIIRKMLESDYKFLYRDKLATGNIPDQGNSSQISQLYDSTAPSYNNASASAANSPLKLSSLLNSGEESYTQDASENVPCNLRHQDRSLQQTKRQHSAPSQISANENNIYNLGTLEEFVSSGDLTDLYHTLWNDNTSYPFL
MEASUREMENT_DESCRIPTION: PBM E-score (8-mer binding enrichment) (E-score (-0.5 to 0.5)); higher = stronger / more preferred TF binding
TEST_CONTEXT: protein concentration: 200 nM; construct: GST-full length
The full ranking holds about 33,000 sequences; the median of “E-score (-0.5 to 0.5)” is about -0.035, and the highest 2% start at about 0.35. Many of the other results were omitted from the sample, so the highest values are more common in it than they were.
For each entry below, report its PBM E-score value.
Numbers only.

Examples with their reported PBM E-score follow.
May I ask what PBM E-score has been recorded for `ATTAGCAG` ?
-0.0762

For `GCTCTGAA` then?
-0.126

For `CGTGGACA` then?
0.108

For `ATGGTGAC` then?
-0.245

For `ACTCAACC` then?
-0.035

For `CCGCCGAA` then?
0.277

Batch: PBM E-score for all items listed.
1. CGCGGACA
2. GGTCGGCA

1. 0.361
2. -0.00943

* * *

ASSAYED_SYSTEM: Pdr3 (UniProt P33200)
Sequence: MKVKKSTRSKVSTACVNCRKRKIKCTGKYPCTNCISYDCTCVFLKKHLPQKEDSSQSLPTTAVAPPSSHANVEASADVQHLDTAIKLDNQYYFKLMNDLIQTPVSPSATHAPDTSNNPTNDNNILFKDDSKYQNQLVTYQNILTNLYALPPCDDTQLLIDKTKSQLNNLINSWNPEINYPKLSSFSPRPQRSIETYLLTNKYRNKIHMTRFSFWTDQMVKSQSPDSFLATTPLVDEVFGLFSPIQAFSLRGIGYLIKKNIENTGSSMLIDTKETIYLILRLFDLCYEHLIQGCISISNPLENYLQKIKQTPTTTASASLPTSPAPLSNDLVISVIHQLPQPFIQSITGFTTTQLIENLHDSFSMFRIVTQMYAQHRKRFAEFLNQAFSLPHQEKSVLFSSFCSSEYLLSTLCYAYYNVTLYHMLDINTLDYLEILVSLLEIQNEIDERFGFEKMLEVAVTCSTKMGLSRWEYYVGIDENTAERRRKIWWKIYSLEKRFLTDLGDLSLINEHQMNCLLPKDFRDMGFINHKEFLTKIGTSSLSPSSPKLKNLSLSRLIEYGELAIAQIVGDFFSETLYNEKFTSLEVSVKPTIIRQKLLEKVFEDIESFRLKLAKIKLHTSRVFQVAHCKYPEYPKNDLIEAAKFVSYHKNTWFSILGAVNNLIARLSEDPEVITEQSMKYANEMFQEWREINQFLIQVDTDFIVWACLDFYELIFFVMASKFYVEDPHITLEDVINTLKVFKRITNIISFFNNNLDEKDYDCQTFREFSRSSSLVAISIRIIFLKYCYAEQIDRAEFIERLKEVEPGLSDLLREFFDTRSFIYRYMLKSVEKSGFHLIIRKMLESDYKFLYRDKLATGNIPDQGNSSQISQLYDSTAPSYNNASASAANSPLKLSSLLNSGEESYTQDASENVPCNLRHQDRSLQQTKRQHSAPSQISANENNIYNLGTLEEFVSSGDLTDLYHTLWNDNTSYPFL
MEASUREMENT_DESCRIPTION: PBM E-score (8-mer binding enrichment) (E-score (-0.5 to 0.5)); higher = stronger / more preferred TF binding
TEST_CONTEXT: protein concentration: 200 nM; construct: GST-full length
Whole data set: some 33,000 sequences, median “E-score (-0.5 to 0.5)” near -0.035, cut for the highest 2% near 0.35. The sample as a whole holds a higher share of the highest values than the screen did.
Response key: TRUE means PBM E-score >= 0.2; FALSE means PBM E-score < 0.2.

Examples from the recorded data:
Decide: is the reported value of PBM E-score for `ATCACGGC` equal to or greater than 0.2?
TRUE

For `CATACGGC` then?
FALSE

For `TATACGGA` then?
TRUE

For `ATGACGGC` then?
FALSE

For `CATACGGA` then?
TRUE

Next:
Decide: is the reported value of PBM E-score for `ATCACGGG` equal to or greater than 0.2?
FALSE

For `CGGCTAAA` then?
FALSE

For `CGATCCCA` then?
FALSE

For `CGGTACCG` then?
TRUE

For `AGCTGTTG` then?
FALSE
